test system: E. coli Keio wt (BW25113); test: Antibiotic susceptibility (growth) assay, E. coli Keio wild-type; format: cell-based, Escherichia coli; details: Minimal medium; 30 μM peptide; average of three biological replicates
No end group written: not given here. *: point of attachment. β‑D‑cellobiosyl = OC[C@H]1O[C@@H](O[C@H]2[C@H](O)[C@@H](O)[C@H](*)O[C@@H]2CO)[C@H](O)[C@@H](O)[C@@H]1O; β‑D‑lactosyl = OC[C@H]1O[C@@H](O[C@H]2[C@H](O)[C@@H](O)[C@H](*)O[C@@H]2CO)[C@H](O)[C@@H](O)[C@H]1O; β‑D‑maltosyl = OC[C@H]1O[C@H](O[C@H]2[C@H](O)[C@@H](O)[C@H](*)O[C@@H]2CO)[C@H](O)[C@@H](O)[C@@H]1O; α‑D‑GlcNAc = CC(=O)N[C@@H]1[C@@H](O)[C@H](O)[C@@H](CO)O[C@@H]1*; αGalNAc = CC(=O)N[C@@H]1[C@@H](O)[C@@H](O)[C@@H](CO)O[C@@H]1*; βGlc = OC[C@H]1O[C@@H](*)[C@H](O)[C@@H](O)[C@@H]1O; βGal = OC[C@H]1O[C@@H](*)[C@H](O)[C@@H](O)[C@H]1O

- Substance: "Dro8: drosocin derivative bearing β-D-Cellobiosyl on Thr11 (GKPRPYSPRPT(β‑D‑cellobiosyl)SHPRPIRV; UniProt P36193 22-40, looked up)"
  Average of normalized growth: "85%"
- Substance: "Dro2: naturally occurring drosocin carrying disaccharide β-D-Gal(1→3)-α-D-GalNAc attached to Thr11 (GKPRPYSPRPTSHPRPIRV; not fully specified (residue 11); UniProt P36193 22-40, looked up)"
  Average of normalized growth: "25%"
- Substance: "Dro6: drosocin derivative bearing β-D-Glc on Thr11 (GKPRPYSPRPT(βGlc)SHPRPIRV; UniProt P36193 22-40, looked up)"
  Average of normalized growth: "72%"
- Substance: "Dro3: drosocin derivative bearing β-D-Maltosyl on Thr11 (GKPRPYSPRPT(β‑D‑maltosyl)SHPRPIRV; UniProt P36193 22-40, looked up)"
  Average of normalized growth: "41%"
- Substance: "Dro1: naturally occurring drosocin carrying monosaccharide α-D-GalNAc attached to Thr11 (GKPRPYSPRPT(αGalNAc)SHPRPIRV; UniProt P36193 22-40, looked up)"
  Average of normalized growth: "6%"
- Substance: "Dro7: drosocin derivative bearing β-D-Lactosyl on Thr11 (GKPRPYSPRPT(β‑D‑lactosyl)SHPRPIRV; UniProt P36193 22-40, looked up)"
  Average of normalized growth: "50%"
- Substance: "Dro4: drosocin derivative bearing α-D-GlcNAc on Thr11 (GKPRPYSPRPT(α‑D‑GlcNAc)SHPRPIRV; UniProt P36193 22-40, looked up)"
  Average of normalized growth: "38%"
- Substance: "Dro: unmodified drosocin, 19 amino acid proline-rich antimicrobial peptide lacking O-glycosylation (GKPRPYSPRPTSHPRPIRV; Drosocin; UniProt P36193 22-40, looked up)"
  Average of normalized growth: "87%"
- Substance: "Dro5: drosocin derivative bearing β-D-Gal on Thr11 (GKPRPYSPRPT(βGal)SHPRPIRV; UniProt P36193 22-40, looked up)"
  Average of normalized growth: "24%"

These measurements were taken from paper PMC10449632.
